Every entry's value here was drawn from PubChem BioAssay AID1159580.

Would you mind telling me the reported normalized growth of each entry?
Experiment: chemical genetic growth profiling, strain panel (AID 1159580);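 note: tested at 20 µM; growth read once vehicle control cultures reached saturation at 30 °C; 1 = growth at the plate median or of vehicle wells; lower values mean less growth of the strain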
Conditions: S. cerevisiae deletion strains, growth OD, locus YIR030C, strain dcg1, hits give low values
About 2,000 (36%) of roughly 5,500 compounds were called active. Not shown: some 18% with an inconclusive outcome. Some of the results follow.

>>> df
                                   compound  observed_property            result
0            COc1ccccc1-c1coc2cc(O)ccc2c1=O  normalized growth   1.01 (inactive)
1  COc1ccc(C(CN(C)C)C2(O)CCCCC2)cc1 (stereo unspecified)  normalized growth  0.986 (inactive)
2  CCN1CCCC(OC(=O)C(c2ccccc2)c2ccccc2)C1 (stereo unspecified)  normalized growth   1.01 (inactive)
3         O=c1c(-c2ccc(O)cc2)coc2cc(O)ccc12  normalized growth  0.978 (inactive)
4         COc1ccc(-c2coc3cc(OC)ccc3c2=O)cc1  normalized growth  0.931 (inactive)

# context switch: different compound, same normalized growth
Measured normalized growth, COc1ccc(-c2coc3cc(O)ccc3c2=O)c(OC)c1O : 0.985 (inactive)
